Entries and their pIC50
- System under test: glycine transporter-2 (GlyT-2) (Homo sapiens)
- Sequence (Q9Y345 whole entry): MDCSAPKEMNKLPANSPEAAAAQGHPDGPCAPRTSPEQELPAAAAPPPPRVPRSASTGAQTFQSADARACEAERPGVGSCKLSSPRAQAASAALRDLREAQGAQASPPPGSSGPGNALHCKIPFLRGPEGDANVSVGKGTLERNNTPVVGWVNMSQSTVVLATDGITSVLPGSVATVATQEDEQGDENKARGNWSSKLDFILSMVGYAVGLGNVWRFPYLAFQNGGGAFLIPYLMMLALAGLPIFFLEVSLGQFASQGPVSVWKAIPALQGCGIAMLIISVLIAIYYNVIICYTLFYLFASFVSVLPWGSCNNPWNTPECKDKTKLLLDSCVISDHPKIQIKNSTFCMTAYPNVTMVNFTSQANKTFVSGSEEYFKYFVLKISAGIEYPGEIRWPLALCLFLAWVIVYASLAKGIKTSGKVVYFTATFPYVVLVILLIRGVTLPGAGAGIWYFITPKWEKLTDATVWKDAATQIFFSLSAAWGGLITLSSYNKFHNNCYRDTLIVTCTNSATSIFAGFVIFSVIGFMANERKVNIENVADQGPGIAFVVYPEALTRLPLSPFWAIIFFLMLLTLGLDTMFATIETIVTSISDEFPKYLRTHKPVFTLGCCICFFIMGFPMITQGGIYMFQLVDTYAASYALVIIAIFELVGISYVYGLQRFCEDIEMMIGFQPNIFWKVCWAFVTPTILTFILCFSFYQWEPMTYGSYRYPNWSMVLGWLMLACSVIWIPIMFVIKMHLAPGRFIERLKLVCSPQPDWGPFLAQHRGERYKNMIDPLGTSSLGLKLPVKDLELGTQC
- Assay text: [14C]glycine uptake assay in HEK-GlyT-2 transfected cells
- Setup conditions: HEK-GlyT-2 cells
pIC50: −log10 of the molar value. Structures can show the parent of a compound that is named as a salt.

Below are worked cases with known answers.
Input: Lab note: need pIC50 for Cn1cnc(S(=O)(=O)N2CCN(C3(CNC(=O)c4c(F)cccc4F)CCC(F)(F)CC3)CC2)c1 [compound 163, Hydrochloride] on glycine transporter-2 (GlyT-2) (Homo sapiens), anyone have it?
Output: 4.13

Input: Would you mind doing CCCS(=O)(=O)N1CCN(C2(CNC(=O)c3c(C)cc(F)cc3OC)CCCCCC2)CC1 [compound 69, Hydrochloride] as well?
Output: < 4.12

Input: Would you mind doing Nc1cccc(Cl)c1C(=O)NCC1(N2CCN(S(=O)(=O)c3ccccc3)CC2)CCCCC1 [compound 89, Hydrochloride] as well?
Output: < 4.12

New cases:
Input: Lab note: need pIC50 for CCCS(=O)(=O)N1CCN(C2(CNC(=O)c3ccc(-c4ccccc4)cc3)CCCCC2)CC1 [compound 38, Hydrochloride] on glycine transporter-2 (GlyT-2) (Homo sapiens), anyone have it?
Output: 5.85

Input: Would you mind doing CC(NC(=O)c1ccc(C(F)(F)F)cc1Cl)C1(N2CCN(S(=O)(=O)c3cn(C)nn3)CC2)CCC(F)(F)CC1 (stereo not shown) [compound 223, Hydrochloride] as well?
Output: < 4.12

Input: Would you mind doing CCCS(=O)(=O)N1CCN(C2(CNC(=O)c3ccc(C(F)(F)F)cc3)CCCCC2)CC1 [compound 7, Hydrochloride] as well?
Output: < 4.52

Input: Would you mind doing CCCS(=O)(=O)N1CCN(C2(CNC(=O)c3cccc(OC)c3)CCCCC2)CC1 [compound 29, Hydrochloride] as well?
Output: < 4.12

====

- System under test: glycine transporter-1 (GlyT-1) (Homo sapiens, UniProt P48067)
- Construct: JAR cells (ATCC#HTB-144), which endogenously express GlyT-1; host or cells: JAR human choriocarcinoma cells
- Sequence (P48067 1-706): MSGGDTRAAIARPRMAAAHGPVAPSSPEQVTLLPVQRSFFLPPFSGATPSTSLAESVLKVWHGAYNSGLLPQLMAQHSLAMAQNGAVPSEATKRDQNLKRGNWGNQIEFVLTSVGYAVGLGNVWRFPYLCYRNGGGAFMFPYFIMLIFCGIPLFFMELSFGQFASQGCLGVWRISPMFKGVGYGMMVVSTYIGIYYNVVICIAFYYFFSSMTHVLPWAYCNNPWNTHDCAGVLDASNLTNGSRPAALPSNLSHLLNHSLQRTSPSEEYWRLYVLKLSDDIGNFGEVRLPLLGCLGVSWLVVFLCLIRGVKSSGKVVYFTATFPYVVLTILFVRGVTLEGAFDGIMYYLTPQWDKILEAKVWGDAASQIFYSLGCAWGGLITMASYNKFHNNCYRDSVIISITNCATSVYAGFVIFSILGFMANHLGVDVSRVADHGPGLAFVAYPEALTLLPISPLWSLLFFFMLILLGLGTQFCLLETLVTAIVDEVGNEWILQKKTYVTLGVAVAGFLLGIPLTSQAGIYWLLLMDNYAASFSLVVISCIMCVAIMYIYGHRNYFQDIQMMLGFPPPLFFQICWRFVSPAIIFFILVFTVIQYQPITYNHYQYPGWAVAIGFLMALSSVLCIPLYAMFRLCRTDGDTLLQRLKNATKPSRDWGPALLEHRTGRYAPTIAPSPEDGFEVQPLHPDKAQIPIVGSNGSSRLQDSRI
- Assay text: [14C]glycine uptake assay in JAR cells endogenously expressing GlyT-1 (scintillation proximity)
- Format: cell-based
- Setup conditions: JAR cells, [14C]glycine 5 μM, 3 hour incubation; read-out: GlyT-1 IC50
pIC50: −log10 of the molar value. Counter-ions that a name gives are not always drawn.
Property measured: pIC50

Below are worked cases with known answers.
Input: Any idea what pIC50 was measured for CC(O)CS(=O)(=O)N1CCN(C2(CNC(=O)c3ccc(C(F)(F)F)cc3Cl)CCC(F)(F)CC2)CC1.Cl (single isomer, unassigned; enantiomer a) [compound 278, Hydrochloride] ?
Output: 7.62

Input: Would you mind doing Cn1cc(S(=O)(=O)N2CCN(C3(CNC(=O)c4cc(F)c(F)cc4Cl)CCC(F)(F)CC3)CC2)nn1 [compound 235, Hydrochloride] as well?
Output: 8.52

(1) CCCS(=O)(=O)N1CCN(C2(CNC(=O)c3c(OC)cc(C(F)(F)F)cc3C(F)(F)F)CCCCCC2)CC1 [compound 70, Hydrochloride]
(2) CCCS(=O)(=O)N1CCN(C2(CNC(=O)c3ccc(C(F)(F)F)cc3C(F)(F)F)CCOCC2)CC1 [compound 267, Hydrochloride]
Input: // compare measured pIC50 between 1 and 2 ; output the lower one Pick one and reply with its label.
Output: 2

(a) CCS(=O)(=O)N1CCN(C2(CNC(=O)c3ccc(C(F)(F)F)cc3Cl)CCC(F)(F)CC2)CC1 [compound 203, Hydrochloride]
(b) CCCS(=O)(=O)N1CCN(C2(CNC(=O)c3c(C)cccc3C)CCC(F)(F)CC2)CC1 [compound 146, Hydrochloride]
Input: So which one has the bigger pIC50 here, a or b ? Pick one and reply with its label.
Output: b

(A) Nc1cccc(Cl)c1C(=O)NCC1(N2CCN(S(=O)(=O)c3ccccc3)CC2)CCCCC1 [compound 89, Hydrochloride]
(B) Cn1cnc(S(=O)(=O)N2CCN(C3(CNC(=O)c4c(N)cccc4Cl)CCCCC3)CC2)c1 [compound 99, Hydrochloride]
(C) CCCS(=O)(=O)N1CCN(C2(CNC(=O)c3ccccc3OC)CCCCC2)CC1 [compound 40, Hydrochloride]
(D) CCCS(=O)(=O)N1CCN(C2(CNC(=O)c3cc(C(F)(F)F)ccc3C(F)(F)F)CCC(F)(F)CC2)CC1 [compound 248, Hydrochloride]
(E) CCCS(=O)(=O)N1CCN(C2(CNC(=O)c3c(F)cc(F)cc3F)CCCCC2)CC1 [compound 48, Hydrochloride]
Input: Place the items in sequence of falling pIC50. Kindly provide the labels arranged according to the requested ordering.
Output: B, E, D, C, A
(B: 8.70, E: 7.80, D: 6.80, C: 6.20, A: 5.64)

====

- System under test: glycine transporter-1 (GlyT-1) (Homo sapiens, UniProt P48067)
- Construct: JAR cells (ATCC#HTB-144), which endogenously express GlyT-1; host or cells: JAR human choriocarcinoma cells
- Assay text: [14C]glycine uptake assay in JAR cells endogenously expressing GlyT-1 (scintillation proximity)
- Format: cell-based
- Setup conditions: JAR cells, [14C]glycine 5 μM, 3 hour incubation; read-out: GlyT-1 IC50
- Description: The inhibitory activity of compounds of the invention against the glycine transporter-1 (GlyT-1) can be determined by the following scintillation proximity assay. The potency of each compound was assessed in inhibiting the uptake of radiolabeled glycine ([^14C]glycine) using the human choriocarcinoma cell line, JAR cells (ATCC#HTB-144), which endogenously express GlyT-1. […]
pIC50: −log10 of the molar value. Structures can show the parent of a compound that is named as a salt.
Property measured: pIC50

Input: Lab note: need pIC50 for O=C(NCC1(N2CCN(S(=O)(=O)CC3CC3)CC2)CCCCC1)c1ccc(Cl)cc1Cl [compound 84, Hydrochloride] on glycine transporter-1 (GlyT-1) (Homo sapiens, UniProt P48067), anyone have it?
Output: 7.25

(P) CCCS(=O)(=O)N1CCN(C2(CNC(=O)c3cccc(C(F)(F)F)c3Cl)CCCCCC2)CC1 [compound 59, Hydrochloride]
(Q) CCCS(=O)(=O)N1CCN(C2(CNC(=O)c3c(C(F)(F)F)ccc(Cl)c3F)CCCCC2)CC1 [compound 5, Hydrochloride]
(R) Cn1cc(S(=O)(=O)N2CCN(C3(CNC(=O)c4c(F)cc(Cl)cc4Cl)CCC(F)(F)CC3)CC2)nn1 [compound 241, Hydrochloride]
Input: Place the items in sequence of falling pIC50. Kindly provide the labels arranged according to the requested ordering.
Output: R, Q, P

====

- System under test: glycine transporter-1 (GlyT-1) (Homo sapiens, UniProt P48067)
- Construct: JAR cells (ATCC#HTB-144), which endogenously express GlyT-1; host or cells: JAR human choriocarcinoma cells
- Assay text: [14C]glycine uptake assay in JAR cells endogenously expressing GlyT-1 (scintillation proximity)
- Format: cell-based
- Setup conditions: JAR cells, [14C]glycine 5 μM, 3 hour incubation; read-out: GlyT-1 IC50
pIC50: −log10 of the molar value. Counter-ions that a name gives are not always drawn.
Property measured: pIC50

(I) CCCS(=O)(=O)N1CCN(C2(C(C)NC(=O)c3c(F)cccc3F)CCC(F)(F)CC2)CC1 (stereo not drawn) [compound 197, Hydrochloride]
(II) Cn1cc(S(=O)(=O)N2CCN(C3(CNC(=O)c4ccc(C(F)(F)F)cc4F)CCC(F)(F)CC3)CC2)nn1 [compound 232, Hydrochloride]
Input: // compare measured pIC50 between I and II ; output the lower one Pick one and reply with its label.
Output: I
(I: 6.52, II: 8.22)
